TARGET OF ASSAY: CSF1R (human) (UniProt P07333)
EXPERIMENT NOTES: KINOMEscan competition binding
CONDITION LABEL: compound 10.0 µM
READOUT NAME: kinase still bound, per cent of control

• O=C(Nc1n[nH]c2nc(-c3cccc(O)c3)ccc12)C1CC1 = no effect (inactive)
• c1ccc(-c2n[nH]cc2-c2ccnc3ccccc23)nc1 = no effect (inactive)
• CC(=O)c1c(-c2ccncc2)[nH]c(-c2ccncc2)c1C = no effect (inactive)
• CCS(=O)(=O)Nc1ccc2c(c1)[C@H](/C(=N/c1ccc(CN3CCCCC3)cc1)c1ccccc1)C(=O)N2 = 0%
• Cc1ccc(NC(=O)c2cccc(N3CCCCC3)c2)cc1-c1ccc(C(=O)NCC2CC2)cc1 = no effect (inactive)

---

kinase still bound, per cent of control for assorted compounds
TARGET OF ASSAY: STK16 (human)
EXPERIMENT NOTES: KINOMEscan competition binding
CONDITION LABEL: compound 10.0 µM
READOUT NAME: kinase still bound, per cent of control

• O=C(Nc1n[nH]c2nc(-c3cccc(O)c3)ccc12)C1CC1 = 0%
• N#Cc1ccc(-c2cnc3[nH]cc(NC(=O)c4cccnc4)c3c2)cc1 = 0%

---

TARGET OF ASSAY: EPHA2 (human) (UniProt P29317)
Sequence (P29317 whole entry, looked up): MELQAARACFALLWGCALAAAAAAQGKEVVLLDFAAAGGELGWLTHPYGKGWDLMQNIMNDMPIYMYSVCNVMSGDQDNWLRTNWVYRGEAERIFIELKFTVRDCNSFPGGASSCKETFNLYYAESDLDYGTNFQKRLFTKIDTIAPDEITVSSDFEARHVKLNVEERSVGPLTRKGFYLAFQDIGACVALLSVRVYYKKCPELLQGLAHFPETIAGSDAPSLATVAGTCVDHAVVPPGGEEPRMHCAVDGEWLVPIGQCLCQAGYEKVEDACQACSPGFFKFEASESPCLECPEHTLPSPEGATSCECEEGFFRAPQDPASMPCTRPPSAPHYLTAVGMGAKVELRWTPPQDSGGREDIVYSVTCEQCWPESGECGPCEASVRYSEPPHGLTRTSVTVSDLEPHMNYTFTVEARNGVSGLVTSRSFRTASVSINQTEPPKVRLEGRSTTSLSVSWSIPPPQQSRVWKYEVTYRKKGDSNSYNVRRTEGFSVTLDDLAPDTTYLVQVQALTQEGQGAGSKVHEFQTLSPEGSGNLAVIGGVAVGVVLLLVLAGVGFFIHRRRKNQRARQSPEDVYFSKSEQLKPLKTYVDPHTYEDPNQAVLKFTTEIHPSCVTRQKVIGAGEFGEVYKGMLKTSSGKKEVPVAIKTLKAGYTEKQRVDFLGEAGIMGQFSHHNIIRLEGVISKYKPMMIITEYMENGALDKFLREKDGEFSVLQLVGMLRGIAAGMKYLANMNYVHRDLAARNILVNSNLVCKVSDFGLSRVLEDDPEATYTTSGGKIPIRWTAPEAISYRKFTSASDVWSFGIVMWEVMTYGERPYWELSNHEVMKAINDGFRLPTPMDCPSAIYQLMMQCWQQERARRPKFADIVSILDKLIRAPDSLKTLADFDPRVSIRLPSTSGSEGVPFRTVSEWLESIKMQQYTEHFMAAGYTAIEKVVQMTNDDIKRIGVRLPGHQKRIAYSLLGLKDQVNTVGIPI
EXPERIMENT NOTES: KINOMEscan competition binding
CONDITION LABEL: compound 10.0 µM
READOUT NAME: kinase still bound, per cent of control

- NC(=O)c1ccc(Nc2cc(-c3ccc(F)cc3)[nH]n2)cc1: no effect (inactive)
- O=C1Nc2ccccc2/C1=C/c1ccc[nH]1: no effect (inactive)
- CCS(=O)(=O)Nc1ccc2c(c1)[C@H](/C(=N/c1ccc(CN3CCCCC3)cc1)c1ccccc1)C(=O)N2: 1.5%
- O=C(Nc1n[nH]c2nc(-c3cccc(O)c3)ccc12)C1CC1: no effect (inactive)
- NC(=O)c1ccc(-c2cc(C(N)=O)c(N)c(-c3ccc(S(N)(=O)=O)cc3)c2)cc1: no effect (inactive)

---

TARGET OF ASSAY: EPHA8 (human) (UniProt P29322)
Sequence (P29322 whole entry, looked up): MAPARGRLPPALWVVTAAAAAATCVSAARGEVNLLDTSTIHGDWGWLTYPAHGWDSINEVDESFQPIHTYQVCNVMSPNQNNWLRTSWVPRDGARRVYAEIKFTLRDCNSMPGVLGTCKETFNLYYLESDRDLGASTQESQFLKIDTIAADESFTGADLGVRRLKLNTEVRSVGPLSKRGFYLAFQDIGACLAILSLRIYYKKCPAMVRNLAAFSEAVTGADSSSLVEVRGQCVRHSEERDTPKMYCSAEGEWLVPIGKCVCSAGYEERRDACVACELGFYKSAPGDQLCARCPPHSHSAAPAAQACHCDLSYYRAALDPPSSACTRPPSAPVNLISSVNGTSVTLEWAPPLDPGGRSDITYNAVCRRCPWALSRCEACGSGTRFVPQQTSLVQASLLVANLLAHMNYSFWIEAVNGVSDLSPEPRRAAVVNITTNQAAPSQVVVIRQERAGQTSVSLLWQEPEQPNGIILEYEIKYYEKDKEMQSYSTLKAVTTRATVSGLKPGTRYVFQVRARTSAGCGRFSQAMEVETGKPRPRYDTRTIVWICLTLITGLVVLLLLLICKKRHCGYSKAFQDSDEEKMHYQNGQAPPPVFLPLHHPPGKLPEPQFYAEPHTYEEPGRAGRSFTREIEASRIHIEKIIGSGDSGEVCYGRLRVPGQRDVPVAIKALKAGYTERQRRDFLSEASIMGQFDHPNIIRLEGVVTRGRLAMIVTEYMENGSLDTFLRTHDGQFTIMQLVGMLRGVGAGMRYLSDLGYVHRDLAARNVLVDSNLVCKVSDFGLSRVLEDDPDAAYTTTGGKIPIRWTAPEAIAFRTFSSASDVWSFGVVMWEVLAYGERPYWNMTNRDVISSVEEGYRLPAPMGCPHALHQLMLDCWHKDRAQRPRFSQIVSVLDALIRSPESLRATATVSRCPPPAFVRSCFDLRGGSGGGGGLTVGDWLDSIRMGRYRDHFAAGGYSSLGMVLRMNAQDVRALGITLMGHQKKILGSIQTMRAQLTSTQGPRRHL
EXPERIMENT NOTES: KINOMEscan competition binding
CONDITION LABEL: compound 10.0 µM
READOUT NAME: kinase still bound, per cent of control

- Cc1ccc(C(=O)Nc2cccc(C(C)(C)C)c2)cc1-c1ccc(C(=O)NCC2CC2)cc1: 0%
- O=C1Nc2ccccc2/C1=C/c1ccc[nH]1: no effect (inactive)
- N#Cc1ccc(-c2cnc3[nH]cc(NC(=O)c4cccnc4)c3c2)cc1: no effect (inactive)
- NC(=O)c1ccc(-c2cc(C(N)=O)c(N)c(-c3ccc(S(N)(=O)=O)cc3)c2)cc1: no effect (inactive)
- CC(=O)c1c(-c2ccncc2)[nH]c(-c2ccncc2)c1C: no effect (inactive)
- Cc1ccc(NC(=O)c2cccc(N3CCCCC3)c2)cc1-c1ccc(C(=O)NCC2CC2)cc1: no effect (inactive)
- c1ccc(-c2n[nH]cc2-c2ccnc3ccccc23)nc1: no effect (inactive)
- NC(=O)c1ccc(Nc2cc(-c3ccc(F)cc3)[nH]n2)cc1: no effect (inactive)
- CCS(=O)(=O)Nc1ccc2c(c1)[C@H](/C(=N/c1ccc(CN3CCCCC3)cc1)c1ccccc1)C(=O)N2: 0.4%
- NC(=O)Nc1sc(-c2ccc(F)cc2)cc1C(N)=O: no effect (inactive)
- Cc1ccc(O)cc1Nc1ccnc(Nc2cccc(C(N)=O)c2)n1: 0%

---

TARGET OF ASSAY: FGFR4 (human) (UniProt P22455)
Sequence (P22455 whole entry, looked up): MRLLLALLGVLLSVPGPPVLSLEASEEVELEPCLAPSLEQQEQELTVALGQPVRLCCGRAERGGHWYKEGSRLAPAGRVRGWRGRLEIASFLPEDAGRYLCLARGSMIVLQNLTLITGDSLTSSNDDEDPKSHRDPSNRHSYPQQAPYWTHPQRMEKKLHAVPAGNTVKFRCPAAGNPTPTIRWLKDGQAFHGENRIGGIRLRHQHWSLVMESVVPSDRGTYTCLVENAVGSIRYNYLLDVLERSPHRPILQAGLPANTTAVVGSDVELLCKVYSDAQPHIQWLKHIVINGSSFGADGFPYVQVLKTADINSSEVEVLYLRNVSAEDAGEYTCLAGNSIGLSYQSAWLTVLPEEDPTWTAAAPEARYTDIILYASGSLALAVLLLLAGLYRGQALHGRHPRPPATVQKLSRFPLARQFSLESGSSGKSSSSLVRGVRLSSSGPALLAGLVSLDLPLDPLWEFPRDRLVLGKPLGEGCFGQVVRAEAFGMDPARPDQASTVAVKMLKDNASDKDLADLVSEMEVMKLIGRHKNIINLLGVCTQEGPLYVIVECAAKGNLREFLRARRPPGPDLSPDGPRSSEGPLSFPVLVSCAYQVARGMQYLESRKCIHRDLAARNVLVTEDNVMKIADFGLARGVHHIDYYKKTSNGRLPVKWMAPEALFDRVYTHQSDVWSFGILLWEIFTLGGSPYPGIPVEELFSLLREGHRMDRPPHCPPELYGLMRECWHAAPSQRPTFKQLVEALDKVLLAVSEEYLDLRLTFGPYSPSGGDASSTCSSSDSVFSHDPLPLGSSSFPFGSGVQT
EXPERIMENT NOTES: KINOMEscan competition binding
CONDITION LABEL: compound 10.0 µM
READOUT NAME: kinase still bound, per cent of control

• NC(=O)c1ccc(-c2cc(C(N)=O)c(N)c(-c3ccc(S(N)(=O)=O)cc3)c2)cc1 = no effect (inactive)
• O=C(Nc1n[nH]c2nc(-c3cccc(O)c3)ccc12)C1CC1 = no effect (inactive)
• N#Cc1ccc(-c2cnc3[nH]cc(NC(=O)c4cccnc4)c3c2)cc1 = no effect (inactive)
• Cc1ccc(C(=O)Nc2cccc(C(C)(C)C)c2)cc1-c1ccc(C(=O)NCC2CC2)cc1 = no effect (inactive)
• Cc1ccc(NC(=O)c2cccc(N3CCCCC3)c2)cc1-c1ccc(C(=O)NCC2CC2)cc1 = no effect (inactive)
• CN(C)c1ccc(-c2cc3ncccc3c(NCCCCN)n2)cc1 = no effect (inactive)
• c1ccc(-c2n[nH]cc2-c2ccnc3ccccc23)nc1 = no effect (inactive)
• NC(=O)c1ccc(Nc2cc(-c3ccc(F)cc3)[nH]n2)cc1 = no effect (inactive)
• Nc1ncnc2c1c(-c1cccc(O)c1)cn2C1CCNCC1 = no effect (inactive)
• NC(=O)Nc1sc(-c2ccc(F)cc2)cc1C(N)=O = no effect (inactive)
• O=C1Nc2ccccc2/C1=C/c1ccc[nH]1 = no effect (inactive)
• CC(=O)c1c(-c2ccncc2)[nH]c(-c2ccncc2)c1C = no effect (inactive)
• CCS(=O)(=O)Nc1ccc2c(c1)[C@H](/C(=N/c1ccc(CN3CCCCC3)cc1)c1ccccc1)C(=O)N2 = 0%

---

TARGET OF ASSAY: EGFR (human)
EXPERIMENT NOTES: KINOMEscan competition binding
CONDITION LABEL: compound 10.0 µM
READOUT NAME: kinase still bound, per cent of control

- Cc1cc(Nc2cc(N3CCN(C)CC3)nc(Sc3ccc(NC(=O)C4CC4)cc3)n2)[nH]n1: no effect (inactive)
- Cc1ccc(NC(=O)c2cccc(N3CCCCC3)c2)cc1-c1ccc(C(=O)NCC2CC2)cc1: no effect (inactive)
- Nc1ncnc2c1c(-c1cccc(O)c1)cn2C1CCNCC1: 0%
- O=C(Nc1n[nH]c2nc(-c3cccc(O)c3)ccc12)C1CC1: no effect (inactive)
- CC(=O)c1c(-c2ccncc2)[nH]c(-c2ccncc2)c1C: no effect (inactive)
- Cc1ccc(C(=O)Nc2cccc(C(C)(C)C)c2)cc1-c1ccc(C(=O)NCC2CC2)cc1: no effect (inactive)
- NC(=O)Nc1sc(-c2ccc(F)cc2)cc1C(N)=O: no effect (inactive)
- c1ccc(-c2n[nH]cc2-c2ccnc3ccccc23)nc1: no effect (inactive)
- CCS(=O)(=O)Nc1ccc2c(c1)[C@H](/C(=N/c1ccc(CN3CCCCC3)cc1)c1ccccc1)C(=O)N2: 21.2%
- NC(=O)c1ccc(Nc2cc(-c3ccc(F)cc3)[nH]n2)cc1: no effect (inactive)
- N#Cc1ccc(-c2cnc3[nH]cc(NC(=O)c4cccnc4)c3c2)cc1: no effect (inactive)
- NC(=O)c1ccc(-c2cc(C(N)=O)c(N)c(-c3ccc(S(N)(=O)=O)cc3)c2)cc1: no effect (inactive)

---

TARGET OF ASSAY: PTK2B (human) (UniProt Q14289)
Sequence (Q14289 whole entry, looked up): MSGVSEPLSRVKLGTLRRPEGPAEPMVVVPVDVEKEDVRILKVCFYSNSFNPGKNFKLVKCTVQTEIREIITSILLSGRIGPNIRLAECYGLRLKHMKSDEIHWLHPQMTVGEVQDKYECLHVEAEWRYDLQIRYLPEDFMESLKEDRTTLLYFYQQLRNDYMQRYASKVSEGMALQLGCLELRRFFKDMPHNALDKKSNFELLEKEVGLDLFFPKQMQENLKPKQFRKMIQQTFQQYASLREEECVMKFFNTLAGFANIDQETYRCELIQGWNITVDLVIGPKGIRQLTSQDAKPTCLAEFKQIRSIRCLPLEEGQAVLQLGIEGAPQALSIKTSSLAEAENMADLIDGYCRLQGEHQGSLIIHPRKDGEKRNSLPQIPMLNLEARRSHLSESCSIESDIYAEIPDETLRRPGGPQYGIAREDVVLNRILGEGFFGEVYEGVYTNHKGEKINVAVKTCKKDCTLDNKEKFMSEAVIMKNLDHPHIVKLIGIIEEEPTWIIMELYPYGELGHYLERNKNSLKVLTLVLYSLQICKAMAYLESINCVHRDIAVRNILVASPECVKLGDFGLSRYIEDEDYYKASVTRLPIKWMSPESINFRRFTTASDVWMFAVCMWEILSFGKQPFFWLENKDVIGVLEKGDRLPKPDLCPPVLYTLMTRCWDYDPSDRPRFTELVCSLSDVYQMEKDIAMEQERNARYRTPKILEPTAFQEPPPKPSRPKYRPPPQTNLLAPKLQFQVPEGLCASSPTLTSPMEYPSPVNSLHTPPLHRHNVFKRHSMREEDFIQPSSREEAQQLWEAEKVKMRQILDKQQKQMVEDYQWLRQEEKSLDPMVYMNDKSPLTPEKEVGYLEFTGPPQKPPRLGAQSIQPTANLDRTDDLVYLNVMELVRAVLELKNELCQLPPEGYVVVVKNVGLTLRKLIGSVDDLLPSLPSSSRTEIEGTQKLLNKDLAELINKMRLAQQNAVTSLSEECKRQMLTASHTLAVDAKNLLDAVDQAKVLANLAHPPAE
pKd: −log10 of the molar value.
READOUT NAME: pKd

- CCS(=O)(=O)Nc1ccc2c(c1)[C@H](/C(=N/c1ccc(CN3CCCCC3)cc1)c1ccccc1)C(=O)N2: 8.00

---

TARGET OF ASSAY: TNK2 (human) (UniProt Q07912)
Sequence (Q07912 whole entry, looked up): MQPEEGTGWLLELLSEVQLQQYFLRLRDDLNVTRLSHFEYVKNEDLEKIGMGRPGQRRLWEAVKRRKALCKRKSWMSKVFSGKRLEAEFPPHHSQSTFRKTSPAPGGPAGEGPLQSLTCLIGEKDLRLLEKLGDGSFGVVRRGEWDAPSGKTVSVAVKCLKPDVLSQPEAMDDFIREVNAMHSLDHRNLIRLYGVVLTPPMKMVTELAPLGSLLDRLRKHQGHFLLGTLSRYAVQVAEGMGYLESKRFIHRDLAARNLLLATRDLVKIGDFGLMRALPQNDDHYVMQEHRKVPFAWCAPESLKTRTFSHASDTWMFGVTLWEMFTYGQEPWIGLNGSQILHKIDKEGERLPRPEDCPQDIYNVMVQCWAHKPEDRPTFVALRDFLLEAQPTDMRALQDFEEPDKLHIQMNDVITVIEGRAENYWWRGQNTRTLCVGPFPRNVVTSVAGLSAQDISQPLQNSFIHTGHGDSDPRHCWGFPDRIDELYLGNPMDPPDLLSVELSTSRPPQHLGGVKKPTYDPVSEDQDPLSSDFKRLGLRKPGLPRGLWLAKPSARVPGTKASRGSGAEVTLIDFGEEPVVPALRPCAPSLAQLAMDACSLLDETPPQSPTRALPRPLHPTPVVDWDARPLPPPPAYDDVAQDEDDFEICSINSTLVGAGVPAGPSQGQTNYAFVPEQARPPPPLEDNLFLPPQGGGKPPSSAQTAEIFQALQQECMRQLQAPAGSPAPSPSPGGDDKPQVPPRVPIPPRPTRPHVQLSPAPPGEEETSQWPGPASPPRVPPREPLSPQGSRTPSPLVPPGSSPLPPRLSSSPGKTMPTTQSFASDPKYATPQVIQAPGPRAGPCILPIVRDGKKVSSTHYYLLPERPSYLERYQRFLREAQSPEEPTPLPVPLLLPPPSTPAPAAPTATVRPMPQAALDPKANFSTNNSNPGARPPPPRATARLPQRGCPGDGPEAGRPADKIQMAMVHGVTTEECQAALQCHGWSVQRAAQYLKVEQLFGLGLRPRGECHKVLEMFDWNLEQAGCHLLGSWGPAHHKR
EXPERIMENT NOTES: KINOMEscan competition binding
CONDITION LABEL: compound 10.0 µM
READOUT NAME: kinase still bound, per cent of control

* O=C(Nc1n[nH]c2nc(-c3cccc(O)c3)ccc12)C1CC1 | no effect (inactive)
* c1ccc(-c2n[nH]cc2-c2ccnc3ccccc23)nc1 | no effect (inactive)
* Cc1ccc(NC(=O)c2cccc(N3CCCCC3)c2)cc1-c1ccc(C(=O)NCC2CC2)cc1 | no effect (inactive)
* CCS(=O)(=O)Nc1ccc2c(c1)[C@H](/C(=N/c1ccc(CN3CCCCC3)cc1)c1ccccc1)C(=O)N2 | 0%
* N#Cc1ccc(-c2cnc3[nH]cc(NC(=O)c4cccnc4)c3c2)cc1 | no effect (inactive)

---

TARGET OF ASSAY: TYRO3 (human)
EXPERIMENT NOTES: KINOMEscan competition binding
CONDITION LABEL: compound 10.0 µM
READOUT NAME: kinase still bound, per cent of control

• N#Cc1ccc(-c2cnc3[nH]cc(NC(=O)c4cccnc4)c3c2)cc1 = no effect (inactive)
• Cc1ccc(NC(=O)c2cccc(N3CCCCC3)c2)cc1-c1ccc(C(=O)NCC2CC2)cc1 = no effect (inactive)
• c1ccc(-c2n[nH]cc2-c2ccnc3ccccc23)nc1 = no effect (inactive)
• CCS(=O)(=O)Nc1ccc2c(c1)[C@H](/C(=N/c1ccc(CN3CCCCC3)cc1)c1ccccc1)C(=O)N2 = 0.2%
• Cc1ccc(O)cc1Nc1ccnc(Nc2cccc(C(N)=O)c2)n1 = 0%

---

TARGET OF ASSAY: AAK1 (human) (UniProt Q2M2I8)
EXPERIMENT NOTES: KINOMEscan competition binding
CONDITION LABEL: compound 10.0 µM
READOUT NAME: kinase still bound, per cent of control

• Cc1ccc(O)cc1Nc1ccnc(Nc2cccc(C(N)=O)c2)n1 = no effect (inactive)
• CCS(=O)(=O)Nc1ccc2c(c1)[C@H](/C(=N/c1ccc(CN3CCCCC3)cc1)c1ccccc1)C(=O)N2 = 0.1%
• NC(=O)c1ccc(-c2cc(C(N)=O)c(N)c(-c3ccc(S(N)(=O)=O)cc3)c2)cc1 = no effect (inactive)
• Nc1ncnc2c1c(-c1cccc(O)c1)cn2C1CCNCC1 = no effect (inactive)
• Cc1ccc(NC(=O)c2cccc(N3CCCCC3)c2)cc1-c1ccc(C(=O)NCC2CC2)cc1 = no effect (inactive)
